- measuredOn: Glutamate NMDA receptor
- assayDetails: Binding affinity against N-methyl-D-aspartate glutamate receptor using [3H]-CPP as radioligand.

# compound, IC50
rows = [
    ("O=C1NO[C@H]2CN[C@H](C(=O)O)[C@@H]12 (racemic)", "> 100 µM"),
    ("O=C1NO[C@H]2[C@@H]1CN[C@@H]2C(=O)O (racemic)", "> 100 µM"),
    ("O=C(O)C1=NO[C@H]2[C@@H]1CN[C@@H]2C(=O)O (stereo in doubt; (-)-7)", "> 100 µM"),
]

====

- assayDetails: The dissociation constant at ammonium group in water at 20 degree Centigrade. (evaluated by Uyeno., Y et. al.)
- Type: ADME
- assayConditions: read-out: pKa3
experimentalEndpoint: pKa

# compound, observedResult
measured = [
    ("N[C@@H](CCC(=O)O)C(=O)O [GLUTAMIC ACID]", 9.54),
]

====

- Species on record: Rattus norvegicus
- assayDetails: Electropharmacology on rat cortical slice preparation for EAA-evoked depolarizations; Depolarization evoked by the compound is fully antagonised by 5 uM of NBQX.
- Type: functional, organism-based
experimentalEndpoint: EC50 (µM)

# molecule, experimentalEndpoint, observedResult
records = [
    ("O=C(O)C1=NO[C@H]2[C@@H]1CN[C@@H]2C(=O)O (stereo in doubt; (+)-7)", "EC50", 251),
]

====

- measuredOn: Glutamate receptor ionotropic, AMPA (Rattus norvegicus, UniProt P19490+P19491+P19492+P19493)
Some molecules, each annotated with its measured IC50.
experimentalEndpoint: IC50 (µM)

# molecule, experimentalEndpoint, unitsSymbol, relationOperator, observedResult
records = [
    ("O=C(O)C1=NO[C@H]2[C@@H]1CN[C@@H]2C(=O)O (stereo in doubt; (-)-7)", "IC50", "µM", ">", 100),
    ("O=C(O)C1=NO[C@H]2CN[C@H](C(=O)O)[C@@H]12 (stereo in doubt; (-)-6)", "IC50", "µM", "=", 0.54),
    ("O=C(O)C1=NO[C@H]2[C@@H]1CN[C@@H]2C(=O)O (stereo in doubt; (+)-7)", "IC50", "µM", "=", 11.2),
    ("O=C(O)C1=NO[C@H]2CN[C@H](C(=O)O)[C@@H]12 (stereo in doubt; (+)-6)", "IC50", "µM", ">", 100),
    ("O=C1NO[C@H]2CN[C@H](C(=O)O)[C@@H]12 (racemic)", "IC50", "µM", "=", 42.6),
    ("O=C1NO[C@H]2[C@@H]1CN[C@@H]2C(=O)O (racemic)", "IC50", "µM", "=", 34.9),
]

====

Some compounds, each annotated with its measured pKa.
- assayDetails: physchem
- assayConditions: water
- Description: The dissociation constant at omega-carboxyl or hydroxyl group in water at 20 degree Centigrade.

# compound, pKa
measured = [
    ("O=C(O)C1=NO[C@H]2CN[C@H](C(=O)O)[C@@H]12 (racemic)", 2.15),
    ("O=C1NO[C@H]2[C@@H]1CN[C@@H]2C(=O)O (racemic)", 5.1),
    ("O=C(O)C1=NO[C@H]2[C@@H]1CN[C@@H]2C(=O)O (racemic)", 2.6),
]

====

- assayDetails: The dissociation constant at alpha-carboxyl group in water at 20 degree Centigrade. (evaluated by Uyeno., Y et. al.)
- Format: ADME
- assayConditions: read-out: pKa1

# compound, pKa
measured = [
    ("N[C@@H](CCC(=O)O)C(=O)O [GLUTAMIC ACID]", 2.39),
]

====

- measuredOn: Glutamate receptor ionotropic, kainate
- assayDetails: Binding affinity against Ionotropic glutamate receptor kainate using [3H]KAIN as radioligand.

# compound, measuredOn, IC50
records = [
    ("O=C(O)C1=NO[C@H]2[C@@H]1CN[C@@H]2C(=O)O (stereo in doubt; (-)-7)", "Glutamate receptor ionotropic, kainate", "> 100 µM"),
    ("O=C(O)C1=NO[C@H]2[C@@H]1CN[C@@H]2C(=O)O (stereo in doubt; (+)-7)", "Glutamate receptor ionotropic, kainate", "67 µM"),
    ("O=C1NO[C@H]2CN[C@H](C(=O)O)[C@@H]12 (racemic)", "Glutamate receptor ionotropic, kainate", "7.9 µM"),
    ("O=C(O)C1=NO[C@H]2CN[C@H](C(=O)O)[C@@H]12 (stereo in doubt; (-)-6)", "Glutamate receptor ionotropic, kainate", "0.23 µM"),
    ("O=C(O)C1=NO[C@H]2CN[C@H](C(=O)O)[C@@H]12 (stereo in doubt; (+)-6)", "Glutamate receptor ionotropic, kainate", "> 100 µM"),
    ("O=C1NO[C@H]2[C@@H]1CN[C@@H]2C(=O)O (racemic)", "Glutamate receptor ionotropic, kainate", "45.3 µM"),
]

====

Some molecules, each annotated with its measured pKa.
- assayDetails: physchem
- assayConditions: water

# molecule, pKa
measured = [
    ("O=C(O)C1=NO[C@H]2CN[C@H](C(=O)O)[C@@H]12 (racemic)", "< 2"),
    ("O=C1NO[C@H]2[C@@H]1CN[C@@H]2C(=O)O (racemic)", 2),
    ("O=C(O)C1=NO[C@H]2[C@@H]1CN[C@@H]2C(=O)O (racemic)", "< 2"),
]
